Values from patent US12435083B2

tested on: Plutella xylostella; experiment: Insecticidal test on Plutella xylostella (Chinese cabbage seedling dip); conditions: 144 h, 500 ppm, seedling dip, 6 days after dip treatment, read-out: activity level (corrected mortality rate), Plutella xylostella
endpoint-label: mortality at 500 ppm (%)
Numeric only. Scale: %

Sample answers from the record:
CCS(=O)(=O)c1cc(-c2ccc(C3CC3)cc2)cnc1-c1nc2cc(C(C)(F)F)cnc2n1C = 100
CCS(=O)(=O)c1cc(-c2ccc(C3(C#N)CC3)cc2)cnc1-c1ccc(OCC(F)(F)C(F)(F)F)cn1 = 100

We next turn to a different compound, shown below.
Request - read-out mortality at 500 ppm | tested on Plutella xylostella | compound CCS(=O)(=O)c1cc(-c2ccc(C3CC3)cc2)cnc1-c1nc2cc(SC(F)(F)F)cnc2n1C
100

* * *

test system: adult Rhipicephalus sanguineus ticks; experiment: Contact activity against adult Rhipicephalus sanguineus (coated vial, mortality at 48 h); details: Rhipicephalus sanguineus; contact assay; >100 μM = not active at the top concentration; read-out: R. sanguineus contact activity EC50
Here, each record is paired with measured EC50 data.

Sample answers from the record:
CCS(=O)(=O)c1cc(-c2ccc(C3CC3(F)F)cc2)cnc1-c1nc2cc(C(F)(F)C(F)(F)F)cnc2n1C (stereo not shown) = 10 to 100 µM
CCS(=O)(=O)c1cc(-c2ccc(C3CC3)cc2)cnc1-n1cc2ccc(C(F)(F)F)cc2n1 = 10 to 100 µM

Bench note: what EC50 did CCS(=O)(=O)c1cc(-c2ccc(C3CC3)cc2)cnc1-c1nc2cc(C(F)(F)F)n(C3CC3)c(=O)c2n1C show?
< 10 µM

Bench note: what EC50 did CCS(=O)(=O)c1cc(-c2ccc(C3(C#N)CC3)cc2)cnc1-n1ncc2ccc(C(F)(F)F)cc2c1=O [(A), reference compound] show?
> 100 µM

Bench note: what EC50 did CCS(=O)(=O)c1cc(-c2nc(C)cc(C3CC3)n2)cnc1-c1nc2cc(C(F)(F)F)ncc2n1C [(C), reference compound] show?
> 100 µM

Bench note: what EC50 did CCS(=O)(=O)c1cc(-c2ccc(C3CC3)cc2)cnc1-c1cc2n(C(F)F)cc(C(F)(F)F)cc-2n1 show?
10 to 100 µM

Bench note: what EC50 did CCS(=O)(=O)c1cc(-c2cccc(C3CC3)n2)cnc1-c1nc2cc(C(F)(F)C(F)(F)F)cnc2n1C show?
10 to 100 µM

* * *

tested on: adult Rhipicephalus sanguineus ticks; assay: Contact activity against adult Rhipicephalus sanguineus (coated vial, mortality at 48 h); details: Rhipicephalus sanguineus; contact assay; >100 μM = not active at the top concentration; read-out: R. sanguineus contact activity EC50
endpoint-label: EC50

Sample answers from the record:
CCS(=O)(=O)c1cc(-c2ccc(C3CC3)cn2)cnc1-n1ncc(OCC(F)(F)C(F)(F)F)cc1=O [(D), reference compound] = > 100 µM
CCS(=O)(=O)c1cc(-c2ccc(C3(C#N)CC3)cc2)cnc1-c1nc2cc(C(F)(F)C(F)(F)F)ncc2n1C = 10 to 100 µM
CCS(=O)(=O)c1cc(-c2ccc(C3CC3)cc2)cnc1-c1cc2n(CC3CC3)cc(C(F)(F)F)cc-2n1 = 10 to 100 µM

We next turn to a different compound, shown below.
Request - read-out EC50 | tested on adult Rhipicephalus sanguineus ticks | compound CCS(=O)(=O)c1cc(-c2ccc(C3(C#N)CC3)cc2)cnc1-n1nc2ccc(C(F)(F)F)cn2c1=O [(B), reference compound]
> 100 µM
